system: S. mansoni adult worms; assay: Motility assay on adult parasites (pixel displacement, relative to DMSO control); format: cell-based, Schistosoma mansoni; settings: secondary screen, 10 μM, D1, Male adult worms
Each item that follows carries a reported Fractional motility.

# Molecule, Fractional motility
rows = [
    ("C=CC(=O)Nc1cccc(Oc2nc(Nc3ccc(N4CCN(C)CC4)cc3OC)ncc2Cl)c1 [WZ4002]", 0.64),
    ("O=C(/C=C/c1ccc2ccccc2n1)c1ccncc1 [PFK15]", 4.15),
    ("CCOC(=O)CCNc1cc(N2CCc3ccccc3CC2)nc(-c2ccccn2)n1 [GSK J4]", -0.11),
    ("CNCc1ccc(-c2cc(-c3nc(-c4ccc(S(=O)(=O)C(C)C)cc4)cnc3N)on2)cc1 [VE-822]", -0.30),
    ("Cc1nc(C#Cc2ccnc(Cl)c2)c(C)n1-c1ccc(OC(F)(F)F)cc1 [CTEP]", -0.49),
]

// query Specify Fractional motility for CC(C(O)c1ccc(O)cc1)N1CCC(Cc2ccccc2)CC1 (stereo not shown) [Ifenprodil] and stop.
// result 1.73

// query Specify Fractional motility for CC(=O)c1cc([N+](=O)[O-])c(Sc2ccc(F)cc2F)s1 [P22077] and stop.
// result -0.12

// query Specify Fractional motility for NS(=O)(=O)C#Cc1ccccc1 [Pifithrin-μ] and stop.
// result -0.36

// query Specify Fractional motility for CCCCc1oc2ccccc2c1C(=O)c1cc(I)c(OCCN(CC)CC)c(I)c1 [Amiodarone] and stop.
// result -0.41
